Each recorded value in this set is attributed to the supplement of paper PMC8047044.

Listing: neurite formation score of selected molecules
test system: Neuro-2a; assay: neurite formation score, plate-normalized to DMSO control mean 5.04 (score (0-8 scale)); higher = more or longer neurites; conditions: 0.1 µM
Measurement Name: neurite formation score

{"columns": ["Smiles Input", "Target Entity", "Measurement Name", "Reported Result"],
 "data": [
  ["O=C1C(c2c(O)[nH]c3ccccc23)=Nc2ccccc21", "Neuro-2a", "neurite formation score", 4.42],
  ["Cc1nc2c(-c3cnc(N)nc3)nc(N3CCOCC3)nc2n1C(C)C", "Neuro-2a", "neurite formation score", 4.25],
  ["CNC(=O)Nc1ccc(-c2nc(N3CC4CCC(C3)O4)c3cnn(C4CCC5(CC4)OCCO5)c3n2)cc1", "Neuro-2a", "neurite formation score", 4.75],
  ["CCc1cnn2c(NCc3ccc[n+]([O-])c3)cc(N3CCCC[C@H]3CCO)nc12", "Neuro-2a", "neurite formation score", 3.42],
  ["O=C(/C=C/c1ccc2ccccc2n1)c1ccncc1", "Neuro-2a", "neurite formation score", 3.08]
]}

----------
system: Neuro-2a; test: neurite formation score, plate-normalized to DMSO control mean 5.04 (score (0-8 scale)); higher = more or longer neurites; details: 0.1 µM
Structures can show the parent of a compound that is named as a salt.

{"columns": ["Compound", "neurite formation score"],
 "data": [
  ["CN(C)C/C=C/C(=O)Nc1cc2c(Nc3ccc(F)c(Cl)c3)ncnc2cc1O[C@H]1CCOC1 [Afatinib (BIBW2992)]", 4.54],
  ["CC(C)c1cnn2c(NCc3ccccc3)cc(NCCCCCCN)nc12", 4.88],
  ["COc1cc2nccc(Oc3ccc(NC(=O)C4(C(=O)Nc5ccc(F)cc5)CC4)cc3)c2cc1OC [Cabozantinib malate (XL184)]", 4.92],
  ["C[C@@H]1CN(CC(=O)Nc2ccc3c(c2)Cc2cccc(-c4cc(=O)cc(N5CCOCC5)o4)c2S3)C[C@H](C)O1", 5.21],
  ["Cc1cn(-c2cc(NC(=O)c3ccc(C)c(Nc4nccc(-c5cccnc5)n4)c3)cc(C(F)(F)F)c2)cn1 [Nilotinib monohydrochloride monohydrate]", 3.09],
  ["Cc1nc(NC(=O)N2CCC[C@H]2C(N)=O)sc1-c1csc(C(C)(C)C)n1", 5.21],
  ["CN1CCN(c2ccc(OC(F)(F)F)c(Nc3ncc4c(n3)-c3c(c(C(N)=O)nn3CCO)CC4)c2)CC1", 4.42],
  ["COc1cc(N2CCC(N)CC2)ccc1Nc1ncc(Cl)c(-c2c[nH]c3ccccc23)n1", 4.92],
  ["Cc1ccc2c(Nc3ccc(Cl)cc3)nccc2c1Nc1ncccc1-c1ncnc2nc[nH]c12 [B-Raf inhibitor 1]", 4.76],
  ["Nc1nc(N)c(N=O)c(OCC2CCCCC2)n1", 4.71],
  ["N#CC1(c2ccc(NC(=O)c3cccnc3NCc3ccncc3)cc2)CCCC1 [Apatinib]", 4.08],
  ["Clc1ccc(Nc2nnc(Cc3ccncc3)c3ccccc23)cc1 [Vatalanib]", 4.92],
  ["CC(=O)Nc1cccc(-n2c(=O)n(C3CC3)c(=O)c3c(Nc4ccc(I)cc4F)n(C)c(=O)c(C)c32)c1 [Trametinib DMSO solvate]", 4.92],
  ["O=C(Nc1cccc(Nc2ncc(Br)c(NCCc3cnc[nH]3)n2)c1)N1CCCC1", 4.71],
  ["CCOc1cc(C(=O)N2CCC(N3CCN(C)CC3)CC2)ccc1Nc1ncc2c(n1)N(C1CCCC1)c1ccccc1C(=O)N2C", 4.25],
  ["COc1cc(C(=O)NC2CCN(C)CC2)ccc1Nc1ncc2c(n1)N(C1CCCC1)CC(F)(F)C(=O)N2C", 4.25],
  ["O=C(NCc1cccc(O)c1)Nc1nc(-c2ccncc2)cs1", 5.25],
  ["O=c1cc(N2CCOCC2)oc2c(-c3cccc4c3sc3ccccc34)cccc12", 4.21],
  ["Cc1cc(O)c2c(c1)C(=O)c1cccc(O)c1C2=O [Chrysophanol]", 4.76],
  ["C[S+]([O-])c1ccc(-c2nc(-c3ccc(F)cc3)c(-c3ccncc3)[nH]2)cc1 (stereo unspecified)", 4.88],
  ["Cc1nc(N)sc1-c1ccnc(Nc2ccc(N3CCOCC3)cc2)n1", 4.58],
  ["Cc1cc(CN2CCN(c3c(Br)cnc4nc(-c5ccc(N6CCN(C)CC6)cc5)[nH]c34)CC2)no1", 4.76],
  ["Cc1[nH]nc2ccc(-c3cncc(OC[C@@H](N)Cc4ccccc4)c3)cc12", 4.25],
  ["c1nc2c(NC3CCCCC3)nc(Nc3ccc(N4CCOCC4)cc3)nc2[nH]1 [Reversine]", 4.92],
  ["COc1ccc(-c2cnc3c(-c4cccc5ncccc45)cnn3c2)cc1", 2.08],
  ["CCS(=O)(=O)N1CC(CC#N)(n2cc(-c3ncnc4[nH]ccc34)cn2)C1", 4.58],
  ["FC(F)(F)c1ccc(CNc2ccc(Cc3c[nH]c4ncccc34)cn2)cc1", 5.08],
  ["CNc1nc(Nc2cnn(C3CCN(C4COC4)CC3F)c2Cl)ncc1C(F)(F)F (stereo unspecified)", 4.75],
  ["COc1cc(Nc2c(C#N)cnc3cc(OCCCN4CCN(C)CC4)c(OC)cc23)c(Cl)cc1Cl [Bosutinib (SKI-606)]", 2.71],
  ["Cc1ccc(NC(=O)c2cccc(C(C)(C)C#N)c2)cc1Nc1ccc2ncn(C)c(=O)c2c1", 4.88],
  ["CC(C)[C@H](CO)Nc1nc(Nc2ccc(C(=O)O)c(Cl)c2)c2ncn(C(C)C)c2n1 [Purvalanol B]", 4.92],
  ["CN(c1ccccc1CNc1nc(Nc2ccc3c(c2)CC(=O)N3)ncc1C(F)(F)F)S(C)(=O)=O", 3.58],
  ["CCc1cncnc1N1CCN(Cc2nc3ccc(C(F)(F)F)cc3[nH]2)CC1", 4.42],
  ["COc1cccc(-c2cc(=O)c3ccccc3o2)c1N", 5.04],
  ["CO[C@@H](C(=O)N1Cc2[nH]nc(NC(=O)c3ccc(N4CCN(C)CC4)cc3)c2C1)c1ccccc1", 4.58],
  ["NC(=O)c1ccc2nc(-c3ccc(Oc4ccc(Cl)cc4)cc3)[nH]c2c1", 5.25]
]}

----------
tested on: Neuro-2a; assay: neurite formation score, plate-normalized to DMSO control mean 5.04 (score (0-8 scale)); higher = more or longer neurites; settings: 1 µM

{"columns": ["Molecule", "neurite formation score"],
 "data": [
  ["CN(C)c1nc2c(Br)c(Br)c(Br)c(Br)c2[nH]1", 5.02],
  ["Cc1cc(Nc2cc(N3CCN(C)CC3)nc(Sc3ccc(NC(=O)C4CC4)cc3)n2)n[nH]1 [VX-680 (MK-0457,Tozasertib)]", 5.02],
  ["COc1cc2ncnc(Nc3ccc(O)c(Br)c3)c2cc1OC", 4.47],
  ["CS(=O)(=O)c1ccc(-c2cnc(N)c(C(=O)Nc3ccccc3)n2)cc1", 4.24],
  ["S=C(NCc1ccc2c(c1)OCO2)N1CCN(c2ncnc3c2oc2ccccc23)CC1 [Amuvatinib (MP-470, HPK 56)]", 4.69],
  ["N=C(N)NCCC(=O)O [3-Guanidinopropionic Acid]", 5.21],
  ["CC(C)[C@H](CO)Nc1nc(Nc2cccc(Cl)c2)c2ncn(C(C)C)c2n1 [Purvalanol A]", 3.54],
  ["O=C(Nc1cccc(Nc2ncc(Br)c(NCCc3cnc[nH]3)n2)c1)N1CCCC1", 3.91],
  ["N#CC[C@H](C1CCCC1)n1cc(-c2ncnc3[nH]ccc23)cn1", 4.91],
  ["Nc1nc(Nc2ccc(S(N)(=O)=O)cc2)nn1C(=O)c1c(F)cccc1F", 5.02],
  ["CNC(=O)c1cc(COc2nnc(Nc3ccc(Cl)cc3)c3ccoc23)ccn1 [Telatinib (BAY 57-9352)]", 4.96],
  ["CN(C)Cc1cccc(N=C(c2ccccc2)c2c(O)[nH]c3cc(C(=O)N(C)C)ccc23)c1", 4.9],
  ["CCOc1cc2ncc(C#N)c(Nc3ccc(OCc4ccccn4)c(Cl)c3)c2cc1NC(=O)/C=C/CN(C)C [Neratinib (HKI-272)]", 3.47],
  ["Cn1cc(-c2ccc3c(c2)CCN3C(=O)Cc2cccc(C(F)(F)F)c2)c2c(N)ncnc21", 4.36],
  ["COc1cc(CCc2cc(NC(=O)c3ccc(N4CC(C)NC(C)C4)cc3)n[nH]2)cc(OC)c1 (stereo not drawn)", 3.9],
  ["CNc1nc(-c2ccc3c(N)n[nH]c3c2)cc(N2C[C@@H](C(=O)NC3CCCCC3)CC[C@H]2C)n1", 4.88],
  ["O=c1sn(-c2cccc3ccccc23)c(=O)n1Cc1ccccc1 [Tideglusib]", 4.21],
  ["CCCCCCCCCCCCCCCCOP(=O)([O-])OCC[N+](C)(C)C [Miltefosine]", 5.63]
]}

----------
test system: Neuro-2a; assay: neurite formation score, plate-normalized to DMSO control mean 5.04 (score (0-8 scale)); higher = more or longer neurites; details: 1 µM
Counter-ions that a name gives are not always drawn.
Kind request: treat 5 as inclusive, so neurite formation score at 5 or higher is y, anything lower is n.

{"columns": ["Compound", "Group Label"],
 "data": [
  ["O=C(O)c1ccc(-c2c[nH]c3ncc(-c4ccccc4)cc23)cc1C1CCCC1", "y"],
  ["CCN(CC)CCNC(=O)c1c(C)[nH]c(/C=C2\\C(=O)Nc3ccc(F)cc32)c1C [Sunitinib malate]", "y"],
  ["COc1cc(C(=O)NC2CCN(C)CC2)ccc1Nc1ncc2c(n1)N(C1CCCC1)CC(F)(F)C(=O)N2C", "n"],
  ["Cc1cc(Nc2ncc(Cl)c(Nc3ccccc3S(=O)(=O)C(C)C)n2)c(OC(C)C)cc1C1CCNCC1", "n"],
  ["Cc1cc(C(=O)NOCCO)c(Nc2ccc(I)cc2F)n(C)c1=O", "n"],
  ["CCCCCCCCCCCCCCCc1cccc(O)c1C(=O)O", "n"],
  ["Cc1nc(NC(=O)N2CCC[C@H]2C(N)=O)sc1-c1ccnc(C(C)(C)C(F)(F)F)c1", "y"],
  ["N#CCNC(=O)c1ccc(-c2ccnc(Nc3ccc(N4CCOCC4)cc3)n2)cc1", "n"],
  ["CC(C)Nc1cc(-c2c[nH]c(C(=O)N[C@H](CO)c3cccc(Cl)c3)c2)c(Cl)cn1", "n"],
  ["N#Cc1ccc2[nH]c(O)c(-c3ccc(CN4CCOCC4)cn3)c2c1", "n"],
  ["O=C1NC(=NCc2cccs2)S/C1=C\\c1ccc2ncccc2c1", "y"],
  ["CNC(=O)c1cc(Oc2ccc(NC(=O)Nc3ccc(Cl)c(C(F)(F)F)c3)cc2)ccn1 [Sorafenib Tosylate]", "n"],
  ["CN(c1ccccc1CNc1nc(Nc2ccc3c(c2)CC(=O)N3)ncc1C(F)(F)F)S(C)(=O)=O", "n"],
  ["Oc1ccc2ccccc2c1SSc1c(O)ccc2ccccc12", "n"],
  ["O=C(Cc1ccc(-c2ccc(OCCN3CCOCC3)cc2)cn1)NCc1ccccc1 [KX2-391 dihydrochloride]", "n"],
  ["O=C(NC1CCNCC1)c1n[nH]cc1NC(=O)c1c(Cl)cccc1Cl", "y"],
  ["COC(=O)Nc1nc2cc(C(=O)c3cccs3)ccc2[nH]1", "n"],
  ["O=C(Nc1ccccc1C(=O)NC1CCCCNC1=O)c1cc2ccccc2s1 (configuration not stated)", "n"],
  ["Nc1ncnc2c1c(-c1cccc(OCc3ccccc3)c1)cn2C1CC(CN2CCC2)C1 (configuration not stated)", "n"],
  ["O=C(Nc1cc(C(F)(F)F)cc(C(F)(F)F)c1)c1cc(Cl)ccc1O", "n"],
  ["Cc1csc(-c2nnc(Nc3ccc(Oc4ncccc4-c4ccnc(N)n4)cc3)c3ccccc23)c1", "n"],
  ["Cc1ccc(C(=O)Nc2cccc(C(F)(F)F)c2)cc1Nc1nc(-c2cccnc2)nc2c1cnn2C", "n"],
  ["C=CC(=O)Nc1cccc(Oc2nc(Nc3ccc(N4CCN(C)CC4)cc3)ncc2Cl)c1", "y"],
  ["Cc1c(NC(=O)c2ccc(C(C)(C)C)cc2)cccc1-c1cn(C)c(=O)c(Nc2ccc(C(=O)N3CCOCC3)cc2)n1", "y"],
  ["Cc1ccc(NC(=O)c2ccc(CN3CCN(C)CC3)cc2)cc1Nc1nccc(-c2cccnc2)n1 [Imatinib (STI571)]", "n"],
  ["O=C1c2ccccc2-c2n[nH]c3cccc1c23", "n"],
  ["CC1(C)CNc2cc(NC(=O)c3cccnc3NCc3ccncc3)ccc21 [Motesanib Diphosphate (AMG-706)]", "n"],
  ["CNC(=O)c1ccccc1Nc1nc(Nc2ccc(N3CCOCC3)cc2OC)ncc1Cl", "n"],
  ["CC(C)n1nc(-c2cc3cc(O)ccc3[nH]2)c2c(N)ncnc21", "n"],
  ["COc1cc(F)c(F)c(Nc2ccc(I)cc2F)c1NS(=O)(=O)C1(C[C@H](O)CO)CC1", "n"],
  ["CC(C)(C)c1cc(NC(=O)Nc2ccc(-c3cn4c(n3)sc3cc(OCCN5CCOCC5)ccc34)cc2)no1", "n"]
]}
